assay: gradient 5% acetonitrile 3 min, to 50% in 2 min, to 85% in 15 min, held 3 min, 100 µL/min; settings: column: Zorbax Extend-C18 2.1 x 50 mm; eluents: water / acetonitrile, 0.1% formic acid
Assign RP-LC retention time to each entry below.
Answers are plain numbers, in s.

Examples with answers:
>>> numeric_result("Cc1cccnc1NC(=O)C1CCCN(c2ccc3cc(S(=O)(=O)N4CCCC4)ccc3n2)C1 (stereo not given)")
624
>>> numeric_result("Cc1ccc2c(c1)N(C(=O)N1CCC(C(=O)NCc3ccccc3)CC1)CCO2")
820
>>> numeric_result("O=c1[nH]nc(SC(F)(F)C(F)(F)C(F)(F)F)c(=O)[nH]1")
709
>>> numeric_result("COc1cccc2c(Nc3ccc(N(C)C)cc3)cc(C(=O)N3CCSCC3)nc12")
682

Please indicate RP-LC retention time recorded for CNC(=O)C1CN(S(=O)(=O)c2cccs2)CC12CCCCC2 (stereo not given)
697

---

assay: gradient 5% acetonitrile 3 min, to 50% in 2 min, to 85% in 15 min, held 3 min, 100 µL/min; settings: column: Zorbax Extend-C18 2.1 x 50 mm; eluents: water / acetonitrile, 0.1% formic acid
observation type: RP-LC retention time (s)
Give bare numbers, in s.

// solved cases for RP-LC retention time follow
>>> numeric_result("Cc1ccccc1CNC(=O)C1CCCN(c2nnc(C)c3c(C)n(-c4ccccc4)nc23)C1 (centres undefined)")
727
>>> numeric_result("NC(=O)c1ccsc1NC(=O)c1c(F)cccc1Cl")
706
>>> numeric_result("COC(=O)c1c(NC(C)c2cccc(OC)c2)c2cccc(Cl)c2[nH]c1=O (centres undefined)")
843

Provide RP-LC retention time values for the following items, in order.
1. COc1ccc(-n2cc(C(=O)OCC(=O)OC(C)(C)C)c3ccccc3c2=O)cc1
2. CCCNC(=O)CN1C(=O)CCn2nc(-c3cn(C)c4ccccc34)cc21
3. CCOc1ccc(NC(=O)Nc2nccn(-c3cccc(Cl)c3)c2=O)cc1
4. Cc1cc(Cl)ccc1NC(=O)N1C[C@@H]2C[C@H]1C[C@@H]2NS(=O)(=O)c1ccccc1
5. COc1ccc(NC(=O)C2CCN(S(=O)(=O)c3ccc4[nH]c(=O)ccc4c3)CC2)c(OC)c1
6. CCOc1ccc(N2C=C(C(=O)OC)S(=O)(=O)c3ccc(F)cc32)cc1

1140
730
1000
883
663
856

---

Provide the recorded RP-LC retention time for the entries that follow.
test: gradient 5% acetonitrile 3 min, to 50% in 2 min, to 85% in 15 min, held 3 min, 100 µL/min; settings: column: Zorbax Extend-C18 2.1 x 50 mm; eluents: water / acetonitrile, 0.1% formic acid
Give bare numbers, in s.

Guide cases for RP-LC retention time, answers given:
>>> numeric_result("Cc1ccn2c(NC(=O)C(C)(C)C)c(-c3ccc(F)cc3)nc2c1")
648
>>> numeric_result("CC(=O)Nc1ccc(C(=O)N2CCN(c3ccc(F)cc3)CC2)c(N2CCCCC2)c1")
833
>>> numeric_result("Cc1nn(CC(=O)NCCCN2CCc3ccccc3C2)c(=O)c2noc(C)c12")
597
>>> numeric_result("O=C(NCc1ccco1)c1ncoc1-c1ccccc1C(=O)N1CCCC1")
711

State recorded RP-LC retention time for all listed molecules.
1. O=C(COc1ccc2ccccc2c1)NCC(O)c1ccc(C(F)(F)F)cc1 (stereo not given)
2. Cc1cccc(CN2CCCn3nc(C(=O)NCCc4cnc[nH]4)cc3C2=O)c1

[898, 610]

For each of the items listed, what is its RP-LC retention time?
1. O=S(=O)(NCC(c1cccnc1)c1c[nH]c2ccccc12)c1ccc(Cl)c(Cl)c1 (stereo not given)
2. Cc1ccc(Cn2cccc2C(=O)C(=O)Nc2ccc3c(c2)OCCO3)cc1
3. Cn1c(N2CCCC(C(=O)Nc3ccccc3)C2)cc(=O)n(C)c1=O (stereo not given)
4. CNC(=O)c1sc(-c2ccccc2F)nc1C

1. 787
2. 1090
3. 649
4. 772
